Target: 5-hydroxytryptamine receptor 1A (Homo sapiens, UniProt P08908)
Sequence (P08908 whole entry): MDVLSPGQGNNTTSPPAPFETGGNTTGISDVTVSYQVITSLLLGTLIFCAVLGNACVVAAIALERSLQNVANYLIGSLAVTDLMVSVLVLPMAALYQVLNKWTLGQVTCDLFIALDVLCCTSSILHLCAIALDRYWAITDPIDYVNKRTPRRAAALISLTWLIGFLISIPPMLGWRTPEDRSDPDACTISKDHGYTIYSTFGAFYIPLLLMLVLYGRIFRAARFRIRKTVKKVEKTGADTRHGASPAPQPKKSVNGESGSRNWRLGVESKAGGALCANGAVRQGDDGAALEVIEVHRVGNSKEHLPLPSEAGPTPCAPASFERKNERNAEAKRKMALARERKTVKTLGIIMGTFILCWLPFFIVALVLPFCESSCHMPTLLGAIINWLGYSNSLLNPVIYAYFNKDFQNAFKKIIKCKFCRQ
REPORTED_METRIC: Ki (nM)

COc1ccc2ccc(NCCCCCN3CCN(c4ccccc4OC)CC3)nc2c1: 0.5

[A] COc1ccc2ccc(NCCN3CCN(c4ccccc4OC)CC3)nc2c1
[B] COc1ccc2nc(NCCCN3CCN(c4ccccc4OC)CC3)ccc2c1
[C] COc1ccccc1N1CCN(CCCCNc2ccc3cc(N)ccc3n2)CC1
Sort these molecules on Ki so the largest reading comes first. Lab note: final answer is the ordered label list.
B, A, C
